Provenance of the data: patent US20200223906A1

system_tested: RSV F protein of subtype B (18537) on recombinant mKate-RSV (respiratory syncytial virus subtype B …, UniProt P13843 26-574)
run_description: cell-based or functional assay
Each record here notes measured Neut IC50 subtype B.
assay_endpoint: Neut IC50 subtype B (µg/mL)

- ADI-18999 (antibody, V domains shown, full-length IgG) VH: QVQLVQSGAEVKKPGSSVKVSCKASGGRFSSDAISWVRQAPGQGLEWMGGIIPIRGTPTYAQKFQGRVTIIADESTTTSYMEMSSLRSEDTAVYYCARPNYDILTGYNDAFDIWGQGTMVTVSS VL: QSVLTQPRSVSGSPGQSVTISCTGTSSDVGGYNYVSWYQQHPGKVPRLMIYDVSKRPSGAPDRFSGSKSGNTASLTISGLQAEDEADYYCCSYAGGLYVFGTGTKLTVL: 6.46
- ADI-18979 (antibody, V domains shown) VH: EVQLLESGAEVKKPGASVKISCKASGYIFTSYGVSWVRQAPGQGLKWMGWISGYNGNTYYDQKFQGRVTMTTDTSTNTAYMELRSLTSDDTAVYYCARDSFSETGTGFPDFWGQGTLVTVSS VL: EIVLTQSPLSLPVTLGQPASISCRSSQSLEYSDGNTYLNWFQQRPGQSPRRLIYKVSNRDSGVPDRFSGSGSGTDFTLKISRVEAEDVGVYYCMQATHRPRTFGQGTKVDIK: 0.031
